Tested on: 922993-354-T-J3-PDC complex spheroid viability
Test Details: Anticancer human tumor 922993-354-T-J3-PDC patient-derived endometrial carcinoma cell line growth inhibition [POLQ]
Measurement Conditions: second compound 0.316 µM; first compound 0.0316 µM; active compounds read low
Reported viability, T/C values are given for each entry in this list.

Molecule: COc1cccc2c1C(=O)c1c(O)c3c(c(O)c1C2=O)CC(O)(C(=O)CO)CC3OC1CC(N)C(O)C(C)O1 (stereo not given) + Nc1ccc(C#CCN(C(=O)Cc2ncc(C(F)(F)F)cc2C(F)(F)F)c2ccc(F)cc2)nn1
viability, T/C: 105%
//
Molecule: C=CCn1c(=O)c2cnc(Nc3ccc(N4CCN(C)CC4)cc3)nc2n1-c1cccc(C(C)(C)O)n1 + Cc1cccc(N(C)C(=O)C2C(O)CCN2c2nc(C)cc(C(F)(F)F)c2C#N)c1
viability, T/C: 98.1%
//
Molecule: C=CC(=O)N1CCN(c2nc(=O)n(-c3c(C)ccnc3C(C)C)c3nc(-c4c(O)cccc4F)c(F)cc23)C(C)C1 (stereo not given) + Cc1cccc(N(C)C(=O)C2C(O)CCN2c2nc(C)cc(C(F)(F)F)c2C#N)c1
viability, T/C: 105%
//
Molecule: COc1cc(C2c3cc4c(cc3C(OC3OC5COC(C)OC5C(O)C3O)C3COC(=O)C23)OCO4)cc(OC)c1O (stereo not given) + Nc1ccc(C#CCN(C(=O)Cc2ncc(C(F)(F)F)cc2C(F)(F)F)c2ccc(F)cc2)nn1
viability, T/C: 101%

# input for lookup
Entry COc1cc2cc(C(=O)CCC(=O)O)sc2cc1OC + Nc1ccc(C#CCN(C(=O)Cc2ncc(C(F)(F)F)cc2C(F)(F)F)c2ccc(F)cc2)nn1 , 922993-354-T-J3-PDC complex spheroid viability data, viability, T/C value: 102%

###

Test system: 922993-354-T-J3-PDC complex spheroid viability
Test Details: Anticancer human tumor 922993-354-T-J3-PDC cell line growth inhibition [POLQ];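 further: spheroids exposed to the agents for one week; 100% = DMSO vehicle control wells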
Measurement Conditions: second compound 0.1 µM; first compound 1 µM; active compounds read low
Reported viability, T/C values are given for each entry in this list.
Number only, in %; omit the unit.

Entry CCc1cc2c(N3CCc4c(cc(Cn5ccnc5)cc4-c4cn(C)nc4C(F)(F)F)C3=O)ccnc2c(OC)n1 + Cc1cccc(N(C)C(=O)C2C(O)CCN2c2nc(C)cc(C(F)(F)F)c2C#N)c1 ; viability, T/C = 107

Entry CCc1c2c(nc3ccc(O)cc13)-c1cc3c(c(=O)n1C2)COC(=O)[C@]3(O)CC + COC1C(OC(N)=O)C(O)C(Oc2ccc3c(O)c(NC(=O)c4ccc(O)c(CC=C(C)C)c4)c(=O)oc3c2C)OC1(C)C ; viability, T/C = 17.8

Entry O=C(Nc1ccc(O)c(NS(=O)(=O)c2ccc(F)cc2)c1)c1ccc(-c2ccccc2)cc1 + COC1C(OC(N)=O)C(O)C(Oc2ccc3c(O)c(NC(=O)c4ccc(O)c(CC=C(C)C)c4)c(=O)oc3c2C)OC1(C)C ; viability, T/C = 99.3

Entry CCc1cc2c(N3CCc4c(cc(Cn5ccnc5)cc4-c4cn(C)nc4C(F)(F)F)C3=O)ccnc2c(OC)n1 + COC1C(OC(N)=O)C(O)C(Oc2ccc3c(O)c(NC(=O)c4ccc(O)c(CC=C(C)C)c4)c(=O)oc3c2C)OC1(C)C ; viability, T/C = 109

Entry Nc1ccn(C2OC(CO)C(O)C2(F)F)c(=O)n1 (configuration not stated) + Cc1cccc(N(C)C(=O)C2C(O)CCN2c2nc(C)cc(C(F)(F)F)c2C#N)c1 ; viability, T/C = 10.7

Entry CNCc1ccc(-c2[nH]c3cc(F)cc4c3c2CCNC4=O)cc1 + Cc1cccc(N(C)C(=O)C2C(O)CCN2c2nc(C)cc(C(F)(F)F)c2C#N)c1 ; viability, T/C = 107

Entry C=CCn1c(=O)c2cnc(Nc3ccc(N4CCN(C)CC4)cc3)nc2n1-c1cccc(C(C)(C)O)n1 + Nc1ccc(C#CCN(C(=O)Cc2ncc(C(F)(F)F)cc2C(F)(F)F)c2ccc(F)cc2)nn1 ; viability, T/C = 101

Values were extracted from PubChem BioAssay AID1963830.
